Study System: c-Met M1250T (M1268T) (Homo sapiens, UniProt P08581, M1250T)
Sequence (P08581 956-1390 M1250T limits assumed): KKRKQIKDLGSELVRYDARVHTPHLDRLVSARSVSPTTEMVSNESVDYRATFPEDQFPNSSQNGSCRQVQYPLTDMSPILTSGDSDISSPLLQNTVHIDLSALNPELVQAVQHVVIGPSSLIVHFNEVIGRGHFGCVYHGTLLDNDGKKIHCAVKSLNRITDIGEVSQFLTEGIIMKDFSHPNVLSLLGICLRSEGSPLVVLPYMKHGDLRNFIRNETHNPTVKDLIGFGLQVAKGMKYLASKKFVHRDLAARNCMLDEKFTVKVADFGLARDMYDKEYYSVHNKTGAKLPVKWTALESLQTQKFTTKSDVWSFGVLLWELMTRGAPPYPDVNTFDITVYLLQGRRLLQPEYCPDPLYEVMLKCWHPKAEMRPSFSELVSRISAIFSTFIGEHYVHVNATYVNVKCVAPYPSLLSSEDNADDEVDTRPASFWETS
Assay Protocol: Z'-LYTE kinase phosphorylation inhibition assay, mutant c-Met
Particulars: 200 μM ATP, cell-free
Outcome Measure: pIC50
Expect pIC50 as a plain number equal to -log10 of the molar concentration.

## Input Which pIC50 value is on record for O=S(=O)(O)c1cc(N=C=S)ccc1C=Cc1ccc(N=C=S)cc1S(=O)(=O)O ?
## Output 6.43

----------
Study System: wild-type c-Met (Homo sapiens, UniProt P08581)
Sequence (P08581 25-1390): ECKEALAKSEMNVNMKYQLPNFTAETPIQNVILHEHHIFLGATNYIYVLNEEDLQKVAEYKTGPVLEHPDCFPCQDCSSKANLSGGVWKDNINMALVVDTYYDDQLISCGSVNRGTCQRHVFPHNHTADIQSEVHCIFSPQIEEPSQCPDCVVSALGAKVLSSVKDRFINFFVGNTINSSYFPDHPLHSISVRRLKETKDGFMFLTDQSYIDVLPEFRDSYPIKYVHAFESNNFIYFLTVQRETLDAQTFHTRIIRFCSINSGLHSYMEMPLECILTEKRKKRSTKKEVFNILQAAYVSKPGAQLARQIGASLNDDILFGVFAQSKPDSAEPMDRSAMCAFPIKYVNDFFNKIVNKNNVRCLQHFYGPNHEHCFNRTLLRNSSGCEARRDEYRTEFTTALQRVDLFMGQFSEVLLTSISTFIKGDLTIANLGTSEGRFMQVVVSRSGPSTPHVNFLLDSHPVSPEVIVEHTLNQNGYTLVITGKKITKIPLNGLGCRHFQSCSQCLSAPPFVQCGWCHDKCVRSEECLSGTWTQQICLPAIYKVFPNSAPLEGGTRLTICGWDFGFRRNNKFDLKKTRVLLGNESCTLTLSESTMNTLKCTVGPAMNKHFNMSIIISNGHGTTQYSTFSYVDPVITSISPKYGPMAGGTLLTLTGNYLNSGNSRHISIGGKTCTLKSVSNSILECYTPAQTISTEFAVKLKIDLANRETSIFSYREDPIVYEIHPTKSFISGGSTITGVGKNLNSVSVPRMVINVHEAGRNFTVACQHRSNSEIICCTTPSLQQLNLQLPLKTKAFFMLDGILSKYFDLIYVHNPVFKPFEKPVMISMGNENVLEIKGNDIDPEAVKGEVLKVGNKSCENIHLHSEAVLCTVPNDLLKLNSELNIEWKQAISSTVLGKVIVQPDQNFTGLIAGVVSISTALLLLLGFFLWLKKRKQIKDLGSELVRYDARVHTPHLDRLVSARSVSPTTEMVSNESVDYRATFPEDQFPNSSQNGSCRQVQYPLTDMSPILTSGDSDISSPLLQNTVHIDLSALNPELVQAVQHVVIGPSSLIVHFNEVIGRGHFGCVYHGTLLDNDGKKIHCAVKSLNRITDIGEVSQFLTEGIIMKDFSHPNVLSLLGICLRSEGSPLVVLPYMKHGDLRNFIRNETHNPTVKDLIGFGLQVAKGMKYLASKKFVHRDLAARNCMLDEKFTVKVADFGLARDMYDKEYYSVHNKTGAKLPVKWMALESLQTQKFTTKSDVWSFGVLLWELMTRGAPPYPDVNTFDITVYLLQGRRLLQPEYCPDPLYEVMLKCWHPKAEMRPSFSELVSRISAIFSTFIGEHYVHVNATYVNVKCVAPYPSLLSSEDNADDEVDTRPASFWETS
Assay Protocol: Z'-LYTE kinase phosphorylation inhibition assay, wild-type c-Met
Assay type: biochemical
Procedure: Z'-LYTE™ Kinase Assay-Tyr6 Peptide kit (Invitrogen) was used to assess the ability of tested compounds to inhibit c-Met phosphorylation. […] The reaction was then stopped, and the fluorescent signal ratio of 445 nm (coumarin)/520 nm (fluorescein) was determined on a plate reader (BioTek FLx800™), which reflects the peptide substrate cleavage status and/or the kinase inhibitory activity in the reaction. […]
Outcome Measure: IC50

## Input May I ask what IC50 has been recorded for O=S(=O)(O)c1cc(N=C=S)ccc1CCc1ccc(N=C=S)cc1S(=O)(=O)O ?
## Output 3.6 µM

----------
Study System: wild-type c-Met (Homo sapiens)
Assay Protocol: Z'-LYTE kinase phosphorylation inhibition assay, wild-type c-Met
Format: biochemical
Particulars: 200 μM ATP, cell-free; read-out: IC50, wild-type c-Met
Outcome Measure: pIC50
Kindly note that pIC50 refers to -log10 of the concentration in mol/L and answer with the value alone.

## Input Entry O=S(=O)(O)c1cc(N=C=S)ccc1C=Cc1ccc(N=C=S)cc1S(=O)(=O)O [DIDS] : reported pIC50 = ?
## Output 6.52
